Numbers sourced from ChEMBL document CHEMBL5034010.

Collected MIC values appear next to each entry.
Test system: Enterobacter cloacae
Assay: Inhibition of Metallo-beta-lactamase IMP-1 in Enterobacter cloacae clinical isolate assessed as MIC for meropenem antibacterial activity at 32 ug/ml (Rvb =16 ug/ml)
Conditions: dose 32.0 µg/ml
The reply should contain only the number, in µg/mL.

Sample answers from the record:
Compound String: O=C(O)CSCC1=C(C(=O)O)N2C(=O)[C@@H](NC(=O)Cc3ccccc3)[C@H]2SC1
Measurement Unit: µg/mL
MIC: 8
--
Compound String: O=C(Cc1ccccc1)N[C@@H]1C(=O)N2C(C(=O)O)=C(CSCCc3ccccc3)CS[C@H]12
Measurement Unit: µg/mL
MIC: 8
--
Compound String: O=C(Cc1ccccc1)N[C@@H]1C(=O)N2C(C(=O)O)=C(CS[C@@H](Cc3ccccc3)C(=O)O)CS[C@H]12
Measurement Unit: µg/mL
MIC: 8
--
Compound String: O=C(Cc1ccccc1)N[C@@H]1C(=O)N2C(C(=O)O)=C(CSCC(=O)c3ccccc3)CS[C@H]12
Measurement Unit: µg/mL
MIC: 8

Q) Using known records, supply MIC for CC1=C(C(=O)O)N2C(=O)[C@@H](NC(=O)Cc3ccccc3)[C@H]2SC1
A) 16

###

Collected fold change (FC) values appear next to each entry.
Tested on: Klebsiella pneumoniae
Assay: Inhibition of Metallo-beta-lactamase IMP-28 in Klebsiella pneumoniae clinical isolate assessed as fold reduction in meropenem MIC at 64 ug/ml
Details: dose 64.0 µg/ml
Answer field: number only, no words.

Compound String: O=C(Cc1ccccc1)N[C@@H]1C(=O)N2C(C(=O)O)=C(CSCCc3ccccc3)CS[C@H]12
fold change (FC): 16
//
Compound String: O=C(Cc1ccccc1)N[C@@H]1C(=O)N2C(C(=O)O)=C(CS[C@@H](Cc3ccccc3)C(=O)O)CS[C@H]12
fold change (FC): 8

Q) Using known records, supply fold change (FC) for O=C(O)CSCC1=C(C(=O)O)N2C(=O)[C@@H](NC(=O)Cc3ccccc3)[C@H]2SC1
A) 8

Q) Using known records, supply fold change (FC) for CC1=C(C(=O)O)N2C(=O)[C@@H](NC(=O)Cc3ccccc3)[C@H]2SC1
A) 4

Q) Using known records, supply fold change (FC) for O=C(Cc1ccccc1)N[C@@H]1C(=O)N2C(C(=O)O)=C(CSCc3ccccc3)CS[C@H]12
A) 8

Q) Using known records, supply fold change (FC) for O=C(Cc1ccccc1)N[C@@H]1C(=O)N2C(C(=O)O)=C(CSCC(=O)c3ccccc3)CS[C@H]12
A) 8

###

Tested on: Klebsiella pneumoniae
Assay: Substrate activity at Klebsiella pneumoniae beta-lactamase IMP-28 assessed as compound hydrolysis by measuring Km by Michaelis-Menten analysis
Collected Km values appear next to each entry.
The reply should contain only the number, in µM.

Sample answers from the record:
Compound: CC1=C(C(=O)O)N2C(=O)[C@@H](NC(=O)Cc3ccccc3)[C@H]2SC1
Target Desc: Klebsiella pneumoniae
Measurement Unit: µM
Km: 392
//
Compound: O=C(Cc1ccccc1)N[C@@H]1C(=O)N2C(C(=O)O)=C(CSC(C(=O)O)c3ccccc3)CS[C@H]12 (some centres not stated)
Target Desc: Klebsiella pneumoniae
Measurement Unit: µM
Km: 129
//
Compound: O=C(Cc1ccccc1)N[C@@H]1C(=O)N2C(C(=O)O)=C(CSCc3ccccc3)CS[C@H]12
Target Desc: Klebsiella pneumoniae
Measurement Unit: µM
Km: 20.5
//
Compound: O=C(Cc1ccccc1)N[C@@H]1C(=O)N2C(C(=O)O)=C(CSCCc3ccccc3)CS[C@H]12
Target Desc: Klebsiella pneumoniae
Measurement Unit: µM
Km: 83.3
//
Compound: O=C(Cc1ccccc1)N[C@@H]1C(=O)N2C(C(=O)O)=C(CS[C@@H](Cc3ccccc3)C(=O)O)CS[C@H]12
Target Desc: Klebsiella pneumoniae
Measurement Unit: µM
Km: 175
//
Compound: O=C(O)CSCC1=C(C(=O)O)N2C(=O)[C@@H](NC(=O)Cc3ccccc3)[C@H]2SC1
Target Desc: Klebsiella pneumoniae
Measurement Unit: µM
Km: 219

Q) Using known records, supply Km for O=C(Cc1ccccc1)N[C@@H]1C(=O)N2C(C(=O)O)=C(CS[C@H](Cc3ccccc3)C(=O)O)CS[C@H]12
A) 249

###

Collected MIC values appear next to each entry.
System: Enterobacter cloacae
Test: Inhibition of Metallo-beta-lactamase IMP-1 in Enterobacter cloacae clinical isolate assessed as MIC for meropenem antibacterial activity at 128 ug/ml (Rvb =16 ug/ml)
Conditions: dose 128.0 µg/ml

Sample answers from the record:
Compound String: O=C(Cc1ccccc1)N[C@@H]1C(=O)N2C(C(=O)O)=C(CSCC(=O)c3ccccc3)CS[C@H]12
Experimental Value: 4 µg/mL
//
Compound String: O=C(Cc1ccccc1)N[C@@H]1C(=O)N2C(C(=O)O)=C(CS[C@@H](Cc3ccccc3)C(=O)O)CS[C@H]12
Experimental Value: 4 µg/mL
//
Compound String: CC1=C(C(=O)O)N2C(=O)[C@@H](NC(=O)Cc3ccccc3)[C@H]2SC1
Experimental Value: 16 µg/mL
//
Compound String: O=C(O)CSCC1=C(C(=O)O)N2C(=O)[C@@H](NC(=O)Cc3ccccc3)[C@H]2SC1
Experimental Value: 4 µg/mL

// next entry
Q) Using known records, supply MIC for O=C(Cc1ccccc1)N[C@@H]1C(=O)N2C(C(=O)O)=C(CSCCc3ccccc3)CS[C@H]12
A) 8 µg/mL

###

Test system: Escherichia coli
Experiment: Inhibition of Metallo-beta-lactamase NDM-1 in Escherichia coli clinical isolate assessed as fold reduction in meropenem MIC at 128 ug/ml
Conditions: dose 128.0 µg/ml
Collected fold change (FC) values appear next to each entry.

Compound: O=C(O)c1cccc(C(=O)O)n1 [DIPICOLINIC ACID]
Recorded Metric: fold change (FC)
Experimental Value: > 64

Q) Using known records, supply fold change (FC) for O=C(Cc1ccccc1)N[C@@H]1C(=O)N2C(C(=O)O)=C(CSCCc3ccccc3)CS[C@H]12
A) 4

Q) Using known records, supply fold change (FC) for O=C(Cc1ccccc1)N[C@@H]1C(=O)N2C(C(=O)O)=C(CSCC(=O)c3ccccc3)CS[C@H]12
A) 4

Q) Using known records, supply fold change (FC) for CC1=C(C(=O)O)N2C(=O)[C@@H](NC(=O)Cc3ccccc3)[C@H]2SC1
A) 2

Q) Using known records, supply fold change (FC) for O=C(Cc1ccccc1)N[C@@H]1C(=O)N2C(C(=O)O)=C(CS[C@H](Cc3ccccc3)C(=O)O)CS[C@H]12
A) 4

###

Collected fold change (FC) values appear next to each entry.
Test system: Enterobacter cloacae
Experiment: Inhibition of Metallo-beta-lactamase IMP-1 in Enterobacter cloacae clinical isolate assessed as fold reduction in meropenem MIC at 64 ug/ml
Conditions: dose 64.0 µg/ml
Answer field: number only, no words.

Sample answers from the record:
Compound String: O=C(Cc1ccccc1)N[C@@H]1C(=O)N2C(C(=O)O)=C(CSCc3ccccc3)CS[C@H]12
Experimental Value: 4
--
Compound String: O=C(O)c1cccc(C(=O)O)n1
Experimental Value: 32
--
Compound String: O=C(Cc1ccccc1)N[C@@H]1C(=O)N2C(C(=O)O)=C(CSCCc3ccccc3)CS[C@H]12
Experimental Value: 2
--
Compound String: O=C(Cc1ccccc1)N[C@@H]1C(=O)N2C(C(=O)O)=C(CSCC(=O)c3ccccc3)CS[C@H]12
Experimental Value: 2

Q) Quote fold change (FC) with test system Enterobacter cloacae for O=C(O)CSCC1=C(C(=O)O)N2C(=O)[C@@H](NC(=O)Cc3ccccc3)[C@H]2SC1
A) 2

###

Tested on: Escherichia coli
Assay: Inhibition of Metallo-beta-lactamase NDM-1 in Escherichia coli clinical isolate assessed as MIC for meropenem antibacterial activity at 64 ug/ml (reference value: 32 ug/ml)
Settings: dose 64.0 µg/ml
Collected MIC values appear next to each entry.
The reply should contain only the number, in µg/mL.

Sample answers from the record:
Molecule: CC1=C(C(=O)O)N2C(=O)[C@@H](NC(=O)Cc3ccccc3)[C@H]2SC1
Measurement Unit: µg/mL
MIC: 16
--
Molecule: O=C(Cc1ccccc1)N[C@@H]1C(=O)N2C(C(=O)O)=C(CSC(C(=O)O)c3ccccc3)CS[C@H]12 (some centres not stated)
Measurement Unit: µg/mL
MIC: 16
--
Molecule: O=C(O)CSCC1=C(C(=O)O)N2C(=O)[C@@H](NC(=O)Cc3ccccc3)[C@H]2SC1
Measurement Unit: µg/mL
MIC: 16
--
Molecule: O=C(O)c1cccc(C(=O)O)n1
Measurement Unit: µg/mL
MIC: 0.5
--
Molecule: O=C(Cc1ccccc1)N[C@@H]1C(=O)N2C(C(=O)O)=C(CSCC(=O)c3ccccc3)CS[C@H]12
Measurement Unit: µg/mL
MIC: 8
--
Molecule: O=C(Cc1ccccc1)N[C@@H]1C(=O)N2C(C(=O)O)=C(CS[C@H](Cc3ccccc3)C(=O)O)CS[C@H]12
Measurement Unit: µg/mL
MIC: 8

// next entry
Q) Using known records, supply MIC for O=C(Cc1ccccc1)N[C@@H]1C(=O)N2C(C(=O)O)=C(CSCc3ccccc3)CS[C@H]12
A) 16
